Assay: amyloid nucleation score (Sup35N fusion, yeast selection) (log enrichment); library NNK2; higher = more nucleation; inactive = no reads after selection;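 further: zero at mode of non-aggregating sequences after 7 days selection at 30°C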
Hi there, I'd appreciate the recorded amyloid nucleation score for every entry that follows.

{"columns": ["item.sequence", "amyloid nucleation score"],
 "data": [
  ["PKSLCYSTLTRGWCQM", -0.418]
]}

Could you share which amyloid nucleation score value was measured for LYIDIRRSCLVCNGMSWRAG ?
5.87

====

Assay: amyloid nucleation score (Sup35N fusion, yeast selection) (log enrichment); library NNK2; higher = more nucleation; inactive = no reads after selection
Would you mind telling me the reported amyloid nucleation score of each entry?
Numbers only.

Solved cases (8 shown):
{"columns": ["substance", "readout", "reported.value"],
 "data": [
  ["ELFRDNTGSSVVGNSRSSDA", "amyloid nucleation score", 0.438],
  ["LYRFSNST", "amyloid nucleation score", -0.968],
  ["FLIEFLWSMSACSAPVFLVF", "amyloid nucleation score", -1.41],
  ["RKLGYFLRLRKKATHGRLLV", "amyloid nucleation score", 5.5],
  ["GNLLVGAKSMVLSRFIGLYR", "amyloid nucleation score", 2.16],
  ["SARRGCYWEAYCATCLKGWM", "amyloid nucleation score", -1.03],
  ["LCSFAMKLVCNRVMAFDIES", "amyloid nucleation score", 1.68],
  ["DNMDFMMCKINSGLNLTLSS", "amyloid nucleation score", -2.33]
]}

Quick batch: amyloid nucleation score for everything below.
1. MEKVHV
2. GFLIKWNNGVLVLVSAMMCI
3. EIMCLHKNALCFQCSTSGCA
4. TFCSPR
5. LEHQSRSFMNFYTRPNKPLE
6. EDSPKFKGGPGIYHSVVLVG
7. SILHSPLSVVYASNISCLF

[1.65, -0.598, 7.52, 0.49, -0.519, 0.394, 7.17]

Below are some substances; for each one, tell me its amyloid nucleation score.
1. VRPNSLRHILASLCFLGGEE
2. TPLEYF

7.42
-0.19
